B1: Pistol ribozyme (parent)
chain: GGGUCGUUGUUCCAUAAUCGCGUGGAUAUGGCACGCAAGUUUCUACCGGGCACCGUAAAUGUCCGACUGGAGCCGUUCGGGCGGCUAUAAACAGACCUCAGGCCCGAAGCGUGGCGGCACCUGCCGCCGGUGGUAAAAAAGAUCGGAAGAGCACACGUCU

- Variants of: B1
- assay_explanation: aptazyme ON/OFF ratio, guanine; higher = stronger switching; co-transcriptional cleavage with and without guanine
parameter_measured: aptazyme ON/OFF ratio

INSERT INTO results (mutation_id, quantitative_readout) VALUES
  ('U7G G9C U10A U11A C12A', 1.46),
  ('U7A U8A G9A U10C U11C C12U C13U', 1.05),
  ('U7A U8G G9C U11A C12G C13A', 1.11),
  ('U7A U8G G9C U10G C12G C13A', 1.3),
  ('U7G U8G G9C U10C U11G', 1.35),
  ('U7G G9U U10G U11C C13A', 1.2),
  ('U7G U8G G9U U11A C12G C13G', 1.06),
  ('U8A U11A', 1.14),
  ('U8A G9C U10A U11G C13G', 1.04),
  ('U8G U10A U11G C12U C13A', 1.15),
  ('U7C U8G U10C U11A C12U C13U', 1.24),
  ('U7A G9U U11C C12G', 1.18),
  ('U7G U8C U10A U11A C13A', 1.18),
  ('U7A U8G G9C C12A C13A', 1.46),
  ('U7G G9A U10A U11A C13U', 1.2),
  ('U7A G9A C12U C13A', 1.04),
  ('U7G U8G G9A C12A C13A', 1.32),
  ('U7A U8G U10G U11A C12A C13G', 1.27),
  ('U7A U8A G9A U10C C12A C13G', 1.03),
  ('U7G U10C U11A C13G', 1.06),
  ('U7A U8A G9A U10A U11C C12A C13G', 1.14),
  ('U7A U8C U11A C12A C13A', 1.2),
  ('U8A G9U U11A', 1.79),
  ('U8C U10G U11A C12U C13G', 1.12),
  ('U8G U10C U11G C12U C13U', 1.13),
  ('U7A U8A G9C U10A U11C C12G C13A', 1.18),
  ('U7C U8C G9A U10A U11A C12G C13A', 1.21),
  ('U7G U8C G9A U10G C12G C13G', 1.05),
  ('U7C U8G G9C U10G U11C C12G C13U', 1.24),
  ('U8A U10A U11C C13A', 1.03);
